Target: human TLR8 (Homo sapiens, UniProt Q9NR97)
Sequence (Q9NR97 27-1041): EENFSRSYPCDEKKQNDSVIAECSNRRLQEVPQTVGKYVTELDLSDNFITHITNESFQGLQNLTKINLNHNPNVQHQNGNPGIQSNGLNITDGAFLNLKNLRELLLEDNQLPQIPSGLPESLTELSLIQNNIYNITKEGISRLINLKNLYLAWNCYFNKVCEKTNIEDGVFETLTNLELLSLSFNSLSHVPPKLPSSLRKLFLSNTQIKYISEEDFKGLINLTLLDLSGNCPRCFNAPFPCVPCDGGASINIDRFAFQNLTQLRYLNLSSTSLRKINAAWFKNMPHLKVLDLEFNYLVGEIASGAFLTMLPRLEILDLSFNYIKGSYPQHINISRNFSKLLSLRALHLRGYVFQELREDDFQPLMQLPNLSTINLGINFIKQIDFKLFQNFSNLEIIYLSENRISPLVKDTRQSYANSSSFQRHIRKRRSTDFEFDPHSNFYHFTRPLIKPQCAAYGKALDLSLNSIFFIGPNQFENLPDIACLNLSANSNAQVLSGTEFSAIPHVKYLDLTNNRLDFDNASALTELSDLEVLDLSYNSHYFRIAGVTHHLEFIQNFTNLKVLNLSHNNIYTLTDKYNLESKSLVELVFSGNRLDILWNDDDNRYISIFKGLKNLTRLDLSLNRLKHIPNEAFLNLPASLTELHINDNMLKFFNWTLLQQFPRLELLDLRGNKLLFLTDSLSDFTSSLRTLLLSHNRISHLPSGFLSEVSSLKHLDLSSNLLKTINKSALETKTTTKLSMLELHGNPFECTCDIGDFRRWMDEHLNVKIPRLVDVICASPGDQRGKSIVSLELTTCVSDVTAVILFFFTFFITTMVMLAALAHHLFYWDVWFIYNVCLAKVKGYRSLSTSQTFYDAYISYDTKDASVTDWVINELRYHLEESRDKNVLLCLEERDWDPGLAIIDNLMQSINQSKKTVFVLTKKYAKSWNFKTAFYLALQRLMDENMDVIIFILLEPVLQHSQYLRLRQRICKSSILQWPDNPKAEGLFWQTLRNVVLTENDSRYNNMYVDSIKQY
Experiment: TLR8 inhibition reporter assay (HEK-Blue cells, SEAP reporter, R848 stimulation)
Conditions: HEK-Blue cells overexpressing human TLR8, R848 15.9 μM
parameter: log10 IC50 (log10 of the value in nM)
Please be aware that the numbers have been log10-transformed from IC50 in nM.

Please review the following examples before continuing.
- COc1ccc(-c2[nH]c3ccc(C4CCN(Cc5cnn(C)c5)CC4)cc3c2C(C)C)cc1OC [Example 259]: 1.04
- COc1ccc(-c2[nH]c3ccc(C4CCN(C5CCN(Cc6nccs6)CC5)CC4)cc3c2C)cc1OC [Example 72]: 2.49
- COc1ccc(-c2[nH]c3ccc(C4CCN(C(=O)Cc5ccc(N(C)C)cc5)CC4)cc3c2CC(F)(F)F)cc1OC [Example 338]: 3.16
- COc1ccc(-c2[nH]c3ccc(C4CCN(C(=O)CNC5CCCC5O)CC4)cc3c2C(C)C)cc1OC (stereo not shown) [Example 236]: 1.58
- COc1ccc(-c2[nH]c3ccc(C4CCN(CC(=O)NCCC5CCCN5C)CC4)cc3c2CC(F)(F)F)cc1OC (stereo not shown) [Example 360]: 1.63

// field: log10 IC50; key: COc1ccc(-c2[nH]c3ccc(C4CCN(C5CCCN(CC6CC6)CC5)CC4)cc3c2C)cc1OC (stereo not shown) [Example 94] ; value = 2.45

// sample CCc1c(-c2ccc(OC)c(OC)c2)[nH]c2ccc(C3CCN(C(=O)CN4CCCC(C(=O)N(CC)CC)C4)CC3)cc12 (single isomer, unassigned) [Example 178] , its log10 IC50 was 2.12
